Origin of the recorded values: patent US20250236673A1

- targetOrSystem: T1, recombinant human CEACAM5 (human, UniProt P06731 35-685, limits assumed)
- T1 construct: Immobilised by amine coupling on a CM5 chip
- T1 sequence (looked up): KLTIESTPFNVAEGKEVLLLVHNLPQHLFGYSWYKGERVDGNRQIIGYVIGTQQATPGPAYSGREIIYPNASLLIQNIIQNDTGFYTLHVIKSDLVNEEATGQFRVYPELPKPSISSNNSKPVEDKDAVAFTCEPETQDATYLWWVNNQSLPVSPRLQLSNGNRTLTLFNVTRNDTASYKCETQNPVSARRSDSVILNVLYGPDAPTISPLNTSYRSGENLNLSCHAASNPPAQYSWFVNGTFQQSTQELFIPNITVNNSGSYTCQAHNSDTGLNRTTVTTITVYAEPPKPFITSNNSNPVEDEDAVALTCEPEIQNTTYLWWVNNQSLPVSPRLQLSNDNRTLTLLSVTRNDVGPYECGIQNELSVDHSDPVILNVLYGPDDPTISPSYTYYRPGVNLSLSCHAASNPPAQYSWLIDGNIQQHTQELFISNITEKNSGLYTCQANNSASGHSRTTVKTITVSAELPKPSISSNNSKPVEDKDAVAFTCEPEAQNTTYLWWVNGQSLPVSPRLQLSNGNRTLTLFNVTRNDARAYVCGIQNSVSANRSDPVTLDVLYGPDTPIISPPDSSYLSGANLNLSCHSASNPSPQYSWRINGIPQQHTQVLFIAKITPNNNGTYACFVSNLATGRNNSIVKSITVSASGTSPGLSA
- assay: SPR Biacore 8K+, CEACAM5 amine-coupled on CM5, ISVD analyte, 1:1 fit
metric: koff (s⁻¹)
Please state the figure in s⁻¹; there is no need to write the unit.

A selection of reference data follows.
T028501791 (VHH, K43Q vs precursor T028501789; also called A0315007E07(K43Q)) VHH: EVQLVESGGGVVQPGGSLRLSCAASGLTFSTYTMGWFRQAPGQEREFVAAIIWSGSNTYYADSVKGRFTISRDNAKNTVYLQMNSLRPEDTALYYCAAQHFGPIGLTTRGYHYWGQGTLVTVSS    0.00087
T028501832 (VHH, K75A vs precursor T028501817; also called A0315024B02(M43K, Q64K,K75A, K83R)) VHH: EVQLVESGGGVVQPGGSLRLSCAASGHTFSEYALGWFRQAPGKEREFVAAINWGGGWTYYADSVKGRFTISRDNAANTLYLQMNSLRPEDTALYYCAASSDYAGGNPTGYPYWGQGTLVTVSS    0.00204

Now look at this one.
INPUT: Supply reported koff belonging to this binder: T028501793 (VHH, K43H vs precursor T028501789; also called A0315007E07(K43H)) VHH: EVQLVESGGGVVQPGGSLRLSCAASGLTFSTYTMGWFRQAPGHEREFVAAIIWSGSNTYYADSVKGRFTISRDNAKNTVYLQMNSLRPEDTALYYCAAQHFGPIGLTTRGYHYWGQGTLVTVSS
OUTPUT: 0.000877
